- TARGET ENTITY: EGFR Ex19del T790M C797S (Homo sapiens, UniProt P00533, C797S/DEL746-750/T790M)
- Construct: expressed in transfected cells; host or cells: Ba/F3
- TEST DESCRIPTION: Ba/F3 drug screening, Cell Titer Glo, IC50 Mut/WT
- Assay type: cell-based
- CONDITIONS USED: T790M-like-3R, 72 hours
Friendly reminder: ratio of IC50 for cells with mutant EGFR to IC50 for cells with wildtype EGFR (Mut/WT) below 10 is True, at or above is False.

compound="CN(C)C/C=C/C(=O)Nc1cc2c(Nc3ccc(Cl)c(Br)c3)ncnc2cn1 [Tarlox-TKI]" group=False
compound="Cc1cc(C(=O)Nc2nc3cccc(Cl)c3n2[C@@H]2CCCCN(C(=O)/C=C/CN(C)C)C2)ccn1 [Nazartinib]" group=True
compound="C=CC(=O)Nc1cc(Nc2ncc(C(=O)OC(C)C)c(-c3cn(C)c4ccccc34)n2)c(OC)cc1N(C)CCN(C)C [TAK-788 (mobocertinib), mobocertinib]" group=False
compound="C=CC(=O)N1CC[C@@H](Oc2nc(Nc3ccc(N4CCC(N5CCN(C)CC5)CC4)cc3)c(C(N)=O)nc2CC)C1 [Naquotinib]" group=False
compound="C=CC(=O)Nc1cc(Nc2nccc(-n3cc(CN(C)C)c(-c4ccccc4)n3)n2)c(OC)cc1N1CCOCC1 [Lazertinib]" group=False

ratio of IC50 for cells with mutant EGFR to IC50 for cells with wildtype EGFR (Mut/WT) under 10? Item: CNC(=O)CN1CCC(Oc2cc3c(Nc4cccc(Cl)c4F)ncnc3cc2OC)CC1 [Sapatinib] False

ratio of IC50 for cells with mutant EGFR to IC50 for cells with wildtype EGFR (Mut/WT) under 10? Item: COc1cc2ncnc(Nc3cccc(Cl)c3F)c2cc1OC(=O)N1CCN(C)C[C@H]1C [AZD3759] True

ratio of IC50 for cells with mutant EGFR to IC50 for cells with wildtype EGFR (Mut/WT) under 10? Item: COc1cc2ncnc(Nc3ccc(F)c(Cl)c3)c2cc1NC(=O)/C=C/CN1CCCCC1 [Dacomitinib] False

ratio of IC50 for cells with mutant EGFR to IC50 for cells with wildtype EGFR (Mut/WT) under 10? Item: C=CC(=O)N[C@H]1C=C(C)c2c(-c3cnc4ccccc4c3)c3c(N)ncnc3n2C1 [TAS 6417] True

ratio of IC50 for cells with mutant EGFR to IC50 for cells with wildtype EGFR (Mut/WT) under 10? Item: C=CC(=O)Nc1cc(Nc2nccc(-c3c[nH]c4ccccc34)n2)c(OC)cc1N(C)CCN(C)C [AZ5104] False

ratio of IC50 for cells with mutant EGFR to IC50 for cells with wildtype EGFR (Mut/WT) under 10? Item: C=CC(=O)Nc1cccc(Oc2nc(Nc3ccc(N4CCN(C)CC4)cc3)nc3ccsc23)c1 [Olmutinib] True

###

- TARGET ENTITY: EGFR L718Q (Homo sapiens, UniProt P00533, L718Q)
- Construct: expressed in transfected cells; host or cells: Ba/F3
- TEST DESCRIPTION: Ba/F3 drug screening, Cell Titer Glo, IC50 Mut/WT
- Type: cell-based
- CONDITIONS USED: PACC; L718Q; Ba/F3; 72 hours
MEASURED PROPERTY: ratio of IC50 for cells with mutant EGFR to IC50 for cells with wildtype EGFR (Mut/WT)
Just the number, please, no unit attached.

Below, each entry is followed by its recorded ratio of IC50 for cells with mutant EGFR to IC50 for cells with wildtype EGFR (Mut/WT) result.
compound="COc1cc2ncnc(Nc3ccc(F)c(Cl)c3)c2cc1NC(=O)/C=C/CN1CCCCC1 [Dacomitinib]" numeric_result=0.3828
compound="COc1cc2ncnc(Nc3cccc(Cl)c3F)c2cc1OC(=O)N1CCN(C)C[C@H]1C [AZD3759]" numeric_result=1.696
compound="CN(C)C/C=C/C(=O)Nc1cc2c(Nc3ccc(Cl)c(Br)c3)ncnc2cn1 [Tarlox-TKI]" numeric_result=0.06989

Let's switch to this compound now.
Bench note: what ratio of IC50 for cells with mutant EGFR to IC50 for cells with wildtype EGFR (Mut/WT) did CNC(=O)CN1CCC(Oc2cc3c(Nc4cccc(Cl)c4F)ncnc3cc2OC)CC1 [Sapatinib] show? 2.03

###

# key: entry, value: ratio of IC50 for cells with mutant EGFR to IC50 for cells with wildtype EGFR (Mut/WT)
- TARGET ENTITY: EGFR T725M (Homo sapiens, UniProt P00533, T725M)
- Construct: expressed in transfected cells; host or cells: Ba/F3 cells, retroviral pBabe-Puro vector (vector made by GeneScript from EGFR WT)
- TEST DESCRIPTION: Ba/F3 drug screening, Cell Titer Glo, IC50 Mut/WT
- Assay type: cell-based
- CONDITIONS USED: Classical-Like, 72 hours
Just the number, please, no unit attached.

Below, each entry is followed by its recorded ratio of IC50 for cells with mutant EGFR to IC50 for cells with wildtype EGFR (Mut/WT) result.
structure_as_smiles=C=CC(=O)Nc1cc(Nc2ncc(C(=O)OC(C)C)c(-c3cn(C)c4ccccc34)n2)c(OC)cc1N(C)CCN(C)C numeric_result=1.082
structure_as_smiles=Cc1cc(C(=O)Nc2nc3cccc(Cl)c3n2[C@@H]2CCCCN(C(=O)/C=C/CN(C)C)C2)ccn1 numeric_result=0.04541
structure_as_smiles=CN(C)C/C=C/C(=O)Nc1cc2c(Nc3ccc(Cl)c(Br)c3)ncnc2cn1 numeric_result=0.004861
structure_as_smiles=C=CC(=O)Nc1cccc(Oc2nc(Nc3ccc(N4CCN(C)CC4)cc3)nc3ccsc23)c1 numeric_result=0.03664
structure_as_smiles=C=CC(=O)N1CC[C@@H](Oc2nc(Nc3ccc(N4CCC(N5CCN(C)CC5)CC4)cc3)c(C(N)=O)nc2CC)C1 numeric_result=0.5761
structure_as_smiles=C=CC(=O)Nc1cc(Nc2nccc(-n3cc(CN(C)C)c(-c4ccccc4)n3)n2)c(OC)cc1N1CCOCC1 numeric_result=0.004466

Let's switch to this compound now.
So what ratio of IC50 for cells with mutant EGFR to IC50 for cells with wildtype EGFR (Mut/WT) did `CNC(=O)CN1CCC(Oc2cc3c(Nc4cccc(Cl)c4F)ncnc3cc2OC)CC1` get with EGFR T725M (Homo sapiens, UniProt P00533, T725M)? 0.00667

###

# key: entry, value: ratio of IC50 for cells with mutant EGFR to IC50 for cells with wildtype EGFR (Mut/WT)
- TARGET ENTITY: EGFR E709A (Homo sapiens, UniProt P00533, E709A)
- Construct: expressed in transfected cells; host or cells: Ba/F3
- TEST DESCRIPTION: Ba/F3 drug screening, Cell Titer Glo, IC50 Mut/WT
- Type: cell-based
- CONDITIONS USED: PACC; E709A; Ba/F3; 72 hours
Just the number, please, no unit attached.

Below, each entry is followed by its recorded ratio of IC50 for cells with mutant EGFR to IC50 for cells with wildtype EGFR (Mut/WT) result.
structure_as_smiles=COc1cc2ncnc(Nc3cccc(Cl)c3F)c2cc1OC(=O)N1CCN(C)C[C@H]1C target_entity="EGFR E709A (Homo sapiens, UniProt P00533, E709A)" numeric_result=0.1241
structure_as_smiles=CN(C)C/C=C/C(=O)Nc1cc2c(Nc3ccc(Cl)c(Br)c3)ncnc2cn1 target_entity="EGFR E709A (Homo sapiens, UniProt P00533, E709A)" numeric_result=0.4803
structure_as_smiles=COc1cc2ncnc(Nc3ccc(F)c(Cl)c3)c2cc1NC(=O)/C=C/CN1CCCCC1 target_entity="EGFR E709A (Homo sapiens, UniProt P00533, E709A)" numeric_result=0.04024

Bench note: what ratio of IC50 for cells with mutant EGFR to IC50 for cells with wildtype EGFR (Mut/WT) did `CNC(=O)CN1CCC(Oc2cc3c(Nc4cccc(Cl)c4F)ncnc3cc2OC)CC1` show? 0.3243

###

# key: entry, value: ratio of IC50 for cells with mutant EGFR to IC50 for cells with wildtype EGFR (Mut/WT)
- TARGET ENTITY: EGFR Ex19del T790M L718V (Homo sapiens, UniProt P00533, DEL746-750/L718V/T790M)
- Construct: expressed in transfected cells; host or cells: Ba/F3
- TEST DESCRIPTION: Ba/F3 drug screening, Cell Titer Glo, IC50 Mut/WT
- Type: cell-based
- CONDITIONS USED: T790M-like-3S, 72 hours
Just the number, please, no unit attached.

Bench note: what ratio of IC50 for cells with mutant EGFR to IC50 for cells with wildtype EGFR (Mut/WT) did `C=CC(=O)Nc1cc(Nc2ncc(C(=O)OC(C)C)c(-c3cn(C)c4ccccc34)n2)c(OC)cc1N(C)CCN(C)C` show? 3.032

Bench note: what ratio of IC50 for cells with mutant EGFR to IC50 for cells with wildtype EGFR (Mut/WT) did `Cc1cc(C(=O)Nc2nc3cccc(Cl)c3n2[C@@H]2CCCCN(C(=O)/C=C/CN(C)C)C2)ccn1` show? 0.2594

Bench note: what ratio of IC50 for cells with mutant EGFR to IC50 for cells with wildtype EGFR (Mut/WT) did `C=CC(=O)Nc1cccc(Oc2nc(Nc3ccc(N4CCN(C)CC4)cc3)nc3ccsc23)c1` show? 0.02165

Bench note: what ratio of IC50 for cells with mutant EGFR to IC50 for cells with wildtype EGFR (Mut/WT) did `C=CC(=O)Nc1cc(Nc2nccc(-n3cc(CN(C)C)c(-c4ccccc4)n3)n2)c(OC)cc1N1CCOCC1` show? 0.4667

Bench note: what ratio of IC50 for cells with mutant EGFR to IC50 for cells with wildtype EGFR (Mut/WT) did `C=CC(=O)N[C@H]1C=C(C)c2c(-c3cnc4ccccc4c3)c3c(N)ncnc3n2C1` show? 0.002884

Bench note: what ratio of IC50 for cells with mutant EGFR to IC50 for cells with wildtype EGFR (Mut/WT) did `CN(C)C/C=C/C(=O)Nc1cc2c(Nc3ccc(Cl)c(Br)c3)ncnc2cn1` show? 154.4

Bench note: what ratio of IC50 for cells with mutant EGFR to IC50 for cells with wildtype EGFR (Mut/WT) did `C=CC(=O)N1CC[C@@H](Oc2nc(Nc3ccc(N4CCC(N5CCN(C)CC5)CC4)cc3)c(C(N)=O)nc2CC)C1` show? 0.02994

Bench note: what ratio of IC50 for cells with mutant EGFR to IC50 for cells with wildtype EGFR (Mut/WT) did `C=CC(=O)Nc1cc(Nc2nccc(-c3c[nH]c4ccccc34)n2)c(OC)cc1N(C)CCN(C)C` show? 0.7041

Bench note: what ratio of IC50 for cells with mutant EGFR to IC50 for cells with wildtype EGFR (Mut/WT) did `COc1cc2ncnc(Nc3cccc(Cl)c3F)c2cc1OC(=O)N1CCN(C)C[C@H]1C` show? 4.812

Bench note: what ratio of IC50 for cells with mutant EGFR to IC50 for cells with wildtype EGFR (Mut/WT) did `COc1cc2ncnc(Nc3ccc(F)c(Cl)c3)c2cc1NC(=O)/C=C/CN1CCCCC1` show? 89.62
